B1: CPEB3 Ribozyme (parent)
chain: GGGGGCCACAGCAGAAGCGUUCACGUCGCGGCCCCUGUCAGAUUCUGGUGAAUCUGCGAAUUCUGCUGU

- Variants of: B1
- method_notes: self-cleavage, relative activity (ratio to wild type); higher = more cleavage; co-transcriptional
Mark NOT MET for self-cleavage values under 0.2, and MET for everything at or above.

A selection of reference data follows.
mutation_key="G17A C24U" cat="NOT MET"
mutation_key="G41A G58U" cat=MET
mutation_key="A51C U61G" cat=MET
mutation_key="A60C U62C" cat=MET
mutation_key="A8G C9A" cat=MET
mutation_key="G2A A16C" cat="NOT MET"
mutation_key="A15C C45U" cat=MET
mutation_key="U20G U26G" cat="NOT MET"

Q: Quick check, self-cleavage >= 0.2? C27U A59C
Result: NOT MET

Q: Quick check, self-cleavage >= 0.2? A15C A59U
Result: MET

Q: Quick check, self-cleavage >= 0.2? U26G A60G
Result: MET

Q: Quick check, self-cleavage >= 0.2? G5A G47U
Result: MET

Q: Quick check, self-cleavage >= 0.2? A23C G41C
Result: MET

Q: Quick check, self-cleavage >= 0.2? U46A U55G
Result: MET

Q: Quick check, self-cleavage >= 0.2? G3C G58C
Result: NOT MET

Q: Quick check, self-cleavage >= 0.2? G30C G37A
Result: NOT MET

Data origin: the RNAGym collection of RNA variant scans (doi:10.7554/elife.80360)
